- TEST_NAME: self-splicing fitness, log relative to wild type (ln ratio); higher = more splicing; Tetrahymena group I intron in knt gene, E. coli kanamycin selection, DiMSum; sequences stand for … in CUCUCU…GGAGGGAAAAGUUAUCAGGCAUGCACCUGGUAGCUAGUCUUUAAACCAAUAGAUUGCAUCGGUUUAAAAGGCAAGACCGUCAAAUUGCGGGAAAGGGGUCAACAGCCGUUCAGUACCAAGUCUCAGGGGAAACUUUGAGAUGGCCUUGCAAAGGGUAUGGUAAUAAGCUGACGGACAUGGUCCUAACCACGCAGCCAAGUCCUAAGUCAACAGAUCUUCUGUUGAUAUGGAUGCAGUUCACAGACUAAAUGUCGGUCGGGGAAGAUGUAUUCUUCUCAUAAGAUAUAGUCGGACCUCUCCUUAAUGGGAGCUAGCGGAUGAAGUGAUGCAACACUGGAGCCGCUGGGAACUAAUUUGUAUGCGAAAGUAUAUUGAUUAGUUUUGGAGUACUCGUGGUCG;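 also: selection with 25 µg/mL kanamycin versus none on LB agar overnight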
- TEST_PARAMETERS: 37 °C
RECORDED_METRIC: self-splicing fitness (ln)
Number only, please.

These solved cases illustrate the format of a correct answer.
- SEQUENCE_CHAIN: "CACUAGCAAUAUUACGGUCA"
  self-splicing fitness (ln): -0.198
- SEQUENCE_CHAIN: "AUACAGCAAUAUUACGGACU"
  self-splicing fitness (ln): 0.141
- SEQUENCE_CHAIN: "AUCAAGCAAUAUUACGCGGA"
  self-splicing fitness (ln): -1.94

get_value(item= `AGCCAGCAAUAUUACGUUAG` , readout=self-splicing fitness (ln)) returns -2.28

get_value(item= `ACUCAGCAAUAUUACGAAAA` , readout=self-splicing fitness (ln)) returns -1.36

get_value(item= `CCUAAGCAAUAUUACGACCU` , readout=self-splicing fitness (ln)) returns -2.34

get_value(item= `CGUAAGCAAUAUUACGUCCC` , readout=self-splicing fitness (ln)) returns -1.21

----------
The following sequences are shown together with reported self-splicing fitness (ln) values.
- TEST_NAME: self-splicing fitness, log relative to wild type (ln ratio); higher = more splicing; Tetrahymena group I intron in knt gene, E. coli kanamycin selection, DiMSum; sequences stand for … in CUCUCU…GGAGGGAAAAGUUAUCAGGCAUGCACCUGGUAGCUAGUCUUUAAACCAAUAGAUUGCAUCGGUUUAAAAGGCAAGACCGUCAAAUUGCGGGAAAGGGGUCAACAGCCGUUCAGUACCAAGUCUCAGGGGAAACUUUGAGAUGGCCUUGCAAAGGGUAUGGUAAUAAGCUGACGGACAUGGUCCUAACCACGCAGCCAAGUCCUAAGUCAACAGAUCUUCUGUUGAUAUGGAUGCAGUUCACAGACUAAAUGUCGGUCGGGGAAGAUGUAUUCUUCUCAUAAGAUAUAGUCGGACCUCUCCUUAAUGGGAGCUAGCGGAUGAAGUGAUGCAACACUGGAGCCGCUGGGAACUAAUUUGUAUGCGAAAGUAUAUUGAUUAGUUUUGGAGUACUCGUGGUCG
- TEST_PARAMETERS: 37 °C
Number only, please.

These solved cases illustrate the format of a correct answer.
- SEQUENCE_CHAIN: "ACGAAGCAAUAUUACGCGUU"
  OBS_VALUE: -2
- SEQUENCE_CHAIN: "UGGGAGCAAUAUUACGAUUC"
  OBS_VALUE: -2.41
- SEQUENCE_CHAIN: "CGGGAGCAAUAUUACGCAAA"
  OBS_VALUE: -2.01
- SEQUENCE_CHAIN: "GUUAAGCAAUAUUACGCGCA"
  OBS_VALUE: 0.115

get_value(item= `GUGUAGCAAUAUUACGUCCG` , readout=self-splicing fitness (ln)) returns -0.647

get_value(item= `UGAAAGCAAUAUUACGCGUG` , readout=self-splicing fitness (ln)) returns -0.284

get_value(item= `ACCGAGCAAUAUUACGGACU` , readout=self-splicing fitness (ln)) returns 0.614

get_value(item= `AUCAAGCAAUAUUACGUAAC` , readout=self-splicing fitness (ln)) returns -2.18

get_value(item= `AGCAAGCAAUAUUACGCACU` , readout=self-splicing fitness (ln)) returns -1.37

get_value(item= `AACCAGCAAUAUUACGUCUA` , readout=self-splicing fitness (ln)) returns -0.6

----------
The following sequences are shown together with reported self-splicing fitness (ln) values.
- TEST_NAME: self-splicing fitness, log relative to wild type (ln ratio); higher = more splicing; Tetrahymena group I intron in knt gene, E. coli kanamycin selection, DiMSum; sequences stand for … in CUCUCU…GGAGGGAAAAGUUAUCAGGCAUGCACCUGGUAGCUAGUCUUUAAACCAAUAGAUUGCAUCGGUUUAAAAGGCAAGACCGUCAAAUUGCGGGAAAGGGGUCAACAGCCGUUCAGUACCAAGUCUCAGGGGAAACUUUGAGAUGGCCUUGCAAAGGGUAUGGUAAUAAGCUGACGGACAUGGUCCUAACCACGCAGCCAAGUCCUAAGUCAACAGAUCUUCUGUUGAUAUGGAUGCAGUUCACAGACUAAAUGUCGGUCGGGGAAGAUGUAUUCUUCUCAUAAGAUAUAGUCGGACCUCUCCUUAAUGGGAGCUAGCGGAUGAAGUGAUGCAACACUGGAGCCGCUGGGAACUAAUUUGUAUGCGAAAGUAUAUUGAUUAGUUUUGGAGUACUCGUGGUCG
- TEST_PARAMETERS: 37 °C

These solved cases illustrate the format of a correct answer.
- SEQUENCE_CHAIN: "UCUGAGCAAUAUUACGGAUU"
  self-splicing fitness (ln): -1.72
- SEQUENCE_CHAIN: "GUAUAGCAAUAUUACGGCAG"
  self-splicing fitness (ln): -1.5
- SEQUENCE_CHAIN: "UCCAAGCAAUAUUACGUCAU"
  self-splicing fitness (ln): -1.39
- SEQUENCE_CHAIN: "AUCGAGCAAUAUUACGGUUG"
  self-splicing fitness (ln): -3.32
- SEQUENCE_CHAIN: "UGACAGCAAUAUUACGAGAC"
  self-splicing fitness (ln): -2.72

# next sequence below
get_value(item= `GCCGAGCAAUAUUACGUACA` , readout=self-splicing fitness (ln)) returns -1.85

----------
- TEST_NAME: self-splicing fitness, log relative to wild type (ln ratio); higher = more splicing; Tetrahymena group I intron in knt gene, E. coli kanamycin selection, DiMSum; sequences stand for … in CUCUCU…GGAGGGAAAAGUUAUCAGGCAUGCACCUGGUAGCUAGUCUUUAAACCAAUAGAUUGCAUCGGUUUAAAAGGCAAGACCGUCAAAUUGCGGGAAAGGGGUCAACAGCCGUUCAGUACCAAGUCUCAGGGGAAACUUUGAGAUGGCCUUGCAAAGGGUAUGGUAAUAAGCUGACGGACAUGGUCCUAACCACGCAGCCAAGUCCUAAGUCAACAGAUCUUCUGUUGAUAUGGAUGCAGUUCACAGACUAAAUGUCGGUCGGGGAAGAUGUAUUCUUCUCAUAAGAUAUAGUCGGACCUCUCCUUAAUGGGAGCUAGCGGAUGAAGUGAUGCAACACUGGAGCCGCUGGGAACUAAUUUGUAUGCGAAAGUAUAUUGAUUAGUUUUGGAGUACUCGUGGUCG
- TEST_PARAMETERS: 30 °C
Lab note: compare self-splicing fitness (ln) against -3. Equal or greater, write Criterion met. Smaller, write Criterion not met.

- SEQUENCE_CHAIN: "CCGUAGCAAUAUUACGCAUG"
  CLASS: "Criterion met"
- SEQUENCE_CHAIN: "AGGUAGCAAUAUUACGGGGG"
  CLASS: "Criterion not met"

Decide: is the reported value of self-splicing fitness (ln) for `GCCGAGCAAUAUUACGUUCA` equal to or greater than -3?
Criterion met

----------
- TEST_NAME: self-splicing fitness, log relative to wild type (ln ratio); higher = more splicing; Tetrahymena group I intron in knt gene, E. coli kanamycin selection, DiMSum; sequences stand for … in CUCUCU…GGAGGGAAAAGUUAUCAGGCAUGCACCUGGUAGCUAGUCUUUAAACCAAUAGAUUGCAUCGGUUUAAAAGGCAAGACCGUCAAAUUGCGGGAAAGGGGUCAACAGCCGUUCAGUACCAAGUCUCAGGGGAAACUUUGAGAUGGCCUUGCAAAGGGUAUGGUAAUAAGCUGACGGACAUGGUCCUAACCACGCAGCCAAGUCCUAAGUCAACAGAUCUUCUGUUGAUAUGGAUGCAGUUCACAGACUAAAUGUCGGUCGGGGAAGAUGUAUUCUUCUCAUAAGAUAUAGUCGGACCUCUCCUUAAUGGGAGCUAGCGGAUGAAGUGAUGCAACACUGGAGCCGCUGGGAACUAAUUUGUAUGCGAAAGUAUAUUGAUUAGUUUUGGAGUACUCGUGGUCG
- TEST_PARAMETERS: 30 °C
The following sequences are shown together with reported self-splicing fitness (ln) values.

These solved cases illustrate the format of a correct answer.
- SEQUENCE_CHAIN: "CACGAGCAAUAUUACGACAG"
  self-splicing fitness (ln): -1.71
- SEQUENCE_CHAIN: "CAUGAGCAAUAUUACGUUUG"
  self-splicing fitness (ln): -3.57
- SEQUENCE_CHAIN: "GUAGAGCAAUAUUACGUUAU"
  self-splicing fitness (ln): -1.68
- SEQUENCE_CHAIN: "GUUGAGCAAUAUUACGCCUC"
  self-splicing fitness (ln): -2.09
- SEQUENCE_CHAIN: "CAAAAGCAAUAUUACGCCUU"
  self-splicing fitness (ln): -3.67
- SEQUENCE_CHAIN: "CCGCAGCAAUAUUACGCGCG"
  self-splicing fitness (ln): -3.21
- SEQUENCE_CHAIN: "CCUCAGCAAUAUUACGAUCU"
  self-splicing fitness (ln): -3.75
- SEQUENCE_CHAIN: "CUACAGCAAUAUUACGGGGG"
  self-splicing fitness (ln): -3.39

get_value(item= `AAAAAGCAAUAUUACGAGCC` , readout=self-splicing fitness (ln)) returns -2.31

get_value(item= `CACUAGCAAUAUUACGGACU` , readout=self-splicing fitness (ln)) returns -2.87

get_value(item= `GUACAGCAAUAUUACGGCAG` , readout=self-splicing fitness (ln)) returns -4.02

get_value(item= `CCCUAGCAAUAUUACGUGCA` , readout=self-splicing fitness (ln)) returns -3.99

get_value(item= `GCUUAGCAAUAUUACGAACA` , readout=self-splicing fitness (ln)) returns -1.38

get_value(item= `CGGAAGCAAUAUUACGGUCA` , readout=self-splicing fitness (ln)) returns -0.599

get_value(item= `UUUGAGCAAUAUUACGAAUU` , readout=self-splicing fitness (ln)) returns -2.47

get_value(item= `AUUAAGCAAUAUUACGAAUU` , readout=self-splicing fitness (ln)) returns -2.27

get_value(item= `GGGCAGCAAUAUUACGCAGG` , readout=self-splicing fitness (ln)) returns -2.6
